Overview of reported SPOT peptide array binding signal intensity across a group of binders:
target: CaRvs167-3; assay: SPOT peptide array binding signal intensity (averaged, normalized) (arbitrary units (background-subtracted, floor 0; scale differs between SH3 domains)); higher = stronger binding of the SH3 domain to the peptide
Please reply with the value in numeric form only.

Below, each entry is followed by its recorded SPOT peptide array binding signal intensity result.
[[record]]
binder = "QNTPPLPPKPKSPHL"
resultnumber = 6

[[record]]
binder = "ILARAILTIPRVLDK"
resultnumber = 854

[[record]]
binder = "KRNRLKILLPFLEQS"
resultnumber = 828

[[record]]
binder = "SNRRPVPRRPSQPLN"
resultnumber = 3.5

[[record]]
binder = "NIKVLLNPKLGKPVK"
resultnumber = 752

[[record]]
binder = "PSTMDFPKLPSFQNS"
resultnumber = 6.5

[[record]]
binder = "MKRSRPSRSIPYTTP"
resultnumber = 2

[[record]]
binder = "IRMPSNPALPKKLLN"
resultnumber = 3.5

[[record]]
binder = "QRIRKIPGIPLMSVG"
resultnumber = 6.5

[[record]]
binder = "ALFRLSFFFPLDPAY"
resultnumber = 964


q: Look up SPOT peptide array binding signal intensity for this binder: RVRKTHVPASKRPSG
a: 7.25

q: Please give the result for ANNQGPPNLPARDKS too.
a: 3

q: Quick one: SSSSTPPTLPPRRIE
a: 0.25

q: // query: KRRAPPPVPKKPSSR
a: 21.8

q: RTIRKLPLMSLSEYF ?
a: 4.75

q: Follow-up item: LPPPPPPPPPPPLPQ
a: 0.5
